Assay: in vitro
Format: cell-based
Settings: human
Where a name gives a salt, the structure may show the parent alone.

| compound | unitsOfMeasure | viability at 24 h, 1 μM |
| --- | --- | --- |
| CC/C(=C(\c1ccccc1)c1ccc(OCCN(C)C)cc1)c1ccccc1 [Tamoxifen citrate, tamoxifen citrate salt] | % | 88.5 |
| C[C@]12C[C@H](O)[C@H]3[C@@H](CCC4=CC(=O)CC[C@@]43C)[C@@H]1CC[C@@H]2C(=O)CO | % | 109 |
| CC/C(=C(/CC)c1ccc(O)cc1)c1ccc(O)cc1 | % | 98 |
| CC#C[C@]1(O)CC[C@H]2[C@@H]3CCC4=CC(=O)CCC4=C3[C@@H](c3ccc(N(C)C)cc3)C[C@@]21C | % | 94.7 |
| C[C@]12C=CC(=O)C=C1CC[C@H]1[C@@H]3C[C@@H](O)[C@](O)(C(=O)CO)[C@@]3(C)C[C@H](O)[C@@]12F | % | 103 |
| C[C@]12CC[C@@H]3c4ccc(O)cc4CC[C@H]3[C@@H]1CC[C@@H]2O | % | 110 |
| CC/C(=C(\c1ccc(O)cc1)c1ccc(OCCN(C)C)cc1)c1ccccc1 [4-hydroxytamoxifen] | % | 106 |
| C#C[C@]1(O)CC[C@H]2[C@@H]3CCC4=Cc5oncc5C[C@]4(C)[C@H]3CC[C@@]21C | % | 108 |
| C[C@@H]1C[C@H]2[C@@H]3CCC4=CC(=O)C=C[C@]4(C)[C@@]3(F)[C@@H](O)C[C@]2(C)[C@@]1(O)C(=O)CO | % | 111 |
| C[C@H]1C[C@@H]2[C@H]([C@@H](O)C[C@@]3(C)[C@H]2CC[C@]3(O)C(=O)CO)[C@@]2(C)C=CC(=O)C=C12 | % | 105 |
| CC(=O)[C@H]1CC[C@H]2[C@@H]3CCC4=CC(=O)CC[C@]4(C)[C@H]3CC[C@]12C | % | 98.1 |
| O=c1c(-c2ccc(O)cc2)coc2cc(O)cc(O)c12 | % | 103 |
